Hey, just so you know, these numbers are from the supplement of paper PMC9112550.

system: Escherichia coli TOP10; experiment: shrunken log2 fold change of peptide-encoding DNA abundance (4.5 h post-induction vs induction); higher = less antimicrobial activity (less host growth inhibition); details: time post-induction: 4.5 h; library: site-saturation at positions 5, 18, 19, 20
quantity: shrunken log2 fold change

[[record]]
entrysequence = "RRIRKRPPRLPRPRPRPVHLPRP"
quantity = "shrunken log2 fold change"
observedvalue = -0.0295

[[record]]
entrysequence = "RRIRCRPPRLPRPRPRPCPHPRP"
quantity = "shrunken log2 fold change"
observedvalue = -0.235

[[record]]
entrysequence = "RRIRMRPPRLPRPRPRPSRNPRP"
quantity = "shrunken log2 fold change"
observedvalue = 0.476

[[record]]
entrysequence = "RRIRQRPPRLPRPRPRPKCFPRP"
quantity = "shrunken log2 fold change"
observedvalue = -0.25

[[record]]
entrysequence = "RRIRPRPPRLPRPRPRPPQEPRP"
quantity = "shrunken log2 fold change"
observedvalue = 0.727

[[record]]
entrysequence = "RRIRERPPRLPRPRPRPEYEPRP"
quantity = "shrunken log2 fold change"
observedvalue = 0.0303

[[record]]
entrysequence = "RRIRCRPPRLPRPRPRPKNEPRP"
quantity = "shrunken log2 fold change"
observedvalue = -0.1

[[record]]
entrysequence = "RRIRYRPPRLPRPRPRPVTHPRP"
quantity = "shrunken log2 fold change"
observedvalue = 0.00542

[[record]]
entrysequence = "RRIRYRPPRLPRPRPRPPSAPRP"
quantity = "shrunken log2 fold change"
observedvalue = 0.388


---

system: Escherichia coli TOP10; assay: shrunken log2 fold change of peptide-encoding DNA abundance (4.5 h post-induction vs induction); higher = less antimicrobial activity (less host growth inhibition); conditions: time post-induction: 4.5 h; library: site-saturation at positions 5, 18, 19, 20
Response key: y means shrunken log2 fold change >= -0.02; n means shrunken log2 fold change < -0.02.

[[record]]
entrysequence = "RRIRYRPPRLPRPRPRPAPGPRP"
grouplabel = "y"

[[record]]
entrysequence = "RRIRLRPPRLPRPRPRPHFAPRP"
grouplabel = "y"

[[record]]
entrysequence = "RRIRKRPPRLPRPRPRPPLPPRP"
grouplabel = "y"

[[record]]
entrysequence = "RRIRFRPPRLPRPRPRPSQLPRP"
grouplabel = "n"

[[record]]
entrysequence = "RRIRTRPPRLPRPRPRPRQFPRP"
grouplabel = "n"

[[record]]
entrysequence = "RRIRYRPPRLPRPRPRPRNLPRP"
grouplabel = "n"


---

test system: Escherichia coli TOP10; experiment: shrunken log2 fold change of peptide-encoding DNA abundance (4.5 h post-induction vs induction); higher = less antimicrobial activity (less host growth inhibition); conditions: time post-induction: 4.5 h; library: site-saturation at positions 5, 18, 19, 20;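 note: peptides expressed intracellularly from a pBAD plasmid library in pooled LB shake-flask culture, induced with 0.3% L-arabinose, DNA abundance read by NGS, three biological replicates, DESeq2 with apeglm shrinkage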
quantity: shrunken log2 fold change

[[record]]
entrysequence = "RRIRSRPPRLPRPRPRPPYAPRP"
observedvalue = 0.0164

[[record]]
entrysequence = "RRIRPRPPRLPRPRPRPDLKPRP"
observedvalue = -0.0801

[[record]]
entrysequence = "RRIRVRPPRLPRPRPRPRICPRP"
observedvalue = -0.229

[[record]]
entrysequence = "RRIRGRPPRLPRPRPRPFKRPRP"
observedvalue = 0.301

[[record]]
entrysequence = "RRIRLRPPRLPRPRPRPVPIPRP"
observedvalue = 0.125

[[record]]
entrysequence = "RRIRSRPPRLPRPRPRPEPYPRP"
observedvalue = 0.0691

[[record]]
entrysequence = "RRIRDRPPRLPRPRPRPHYVPRP"
observedvalue = -0.0495

[[record]]
entrysequence = "RRIRHRPPRLPRPRPRPCRVPRP"
observedvalue = -0.242

[[record]]
entrysequence = "RRIRFRPPRLPRPRPRPNGAPRP"
observedvalue = -0.105

[[record]]
entrysequence = "RRIRHRPPRLPRPRPRPHWKPRP"
observedvalue = -0.337

[[record]]
entrysequence = "RRIRARPPRLPRPRPRPKEIPRP"
observedvalue = 0.711

[[record]]
entrysequence = "RRIRIRPPRLPRPRPRPYISPRP"
observedvalue = -0.0173

[[record]]
entrysequence = "RRIRHRPPRLPRPRPRPMAKPRP"
observedvalue = -0.124

